target: UniProt P18825
Sequence (P18825 whole entry): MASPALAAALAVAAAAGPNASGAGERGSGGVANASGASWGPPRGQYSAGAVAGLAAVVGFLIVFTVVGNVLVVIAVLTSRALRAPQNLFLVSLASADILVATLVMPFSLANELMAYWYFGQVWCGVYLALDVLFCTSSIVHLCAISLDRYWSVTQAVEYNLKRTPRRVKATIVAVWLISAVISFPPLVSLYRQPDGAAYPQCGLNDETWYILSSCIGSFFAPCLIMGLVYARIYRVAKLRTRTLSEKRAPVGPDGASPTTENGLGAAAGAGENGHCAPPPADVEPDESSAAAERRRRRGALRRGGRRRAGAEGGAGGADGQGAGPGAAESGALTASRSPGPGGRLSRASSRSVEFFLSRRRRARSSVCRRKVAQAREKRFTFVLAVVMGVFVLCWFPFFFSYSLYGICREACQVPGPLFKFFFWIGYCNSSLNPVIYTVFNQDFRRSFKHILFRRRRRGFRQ
pKi: −log10 of the molar value. Where a name gives a salt, the structure may show the parent alone.
Overview of recorded pKi for various compounds
observed-property: pKi

Cl.Cl.c1ccc(Nc2nc(Nc3ccc(N4CCCCC4)cc3)nc3ccccc23)cc1 [Compound 6, Dihydrochloride] ... 6.36
CC(=O)O[C@H]1CC[C@H](Nc2nc(Nc3ccccc3)c3ccccc3n2)CC1 [Compound 7, Hydrochloride] ... 6.85

---

target: 5HT1D2 (Homo sapiens, UniProt P28222)
Sequence (P28222 whole entry): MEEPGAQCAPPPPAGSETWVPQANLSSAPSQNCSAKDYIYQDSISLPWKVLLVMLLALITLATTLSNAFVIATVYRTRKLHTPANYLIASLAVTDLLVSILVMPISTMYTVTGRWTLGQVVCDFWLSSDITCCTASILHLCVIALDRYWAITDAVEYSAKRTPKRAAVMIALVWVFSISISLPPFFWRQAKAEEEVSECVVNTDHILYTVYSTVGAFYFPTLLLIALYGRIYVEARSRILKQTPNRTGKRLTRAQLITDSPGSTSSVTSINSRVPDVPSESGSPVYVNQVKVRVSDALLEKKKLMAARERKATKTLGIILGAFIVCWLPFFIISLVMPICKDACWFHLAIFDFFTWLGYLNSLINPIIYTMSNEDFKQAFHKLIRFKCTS
pKi: −log10 of the molar value. Structures can show the parent of a compound that is named as a salt.
observed-property: pKi

CC(=O)O[C@H]1CC[C@H](Nc2nc(Nc3ccccc3)c3ccccc3n2)CC1 [Compound 7, Hydrochloride] ... 5.30

---

target: human α1a adrenergic receptor (Homo sapiens)
Sequence (P35348 whole entry): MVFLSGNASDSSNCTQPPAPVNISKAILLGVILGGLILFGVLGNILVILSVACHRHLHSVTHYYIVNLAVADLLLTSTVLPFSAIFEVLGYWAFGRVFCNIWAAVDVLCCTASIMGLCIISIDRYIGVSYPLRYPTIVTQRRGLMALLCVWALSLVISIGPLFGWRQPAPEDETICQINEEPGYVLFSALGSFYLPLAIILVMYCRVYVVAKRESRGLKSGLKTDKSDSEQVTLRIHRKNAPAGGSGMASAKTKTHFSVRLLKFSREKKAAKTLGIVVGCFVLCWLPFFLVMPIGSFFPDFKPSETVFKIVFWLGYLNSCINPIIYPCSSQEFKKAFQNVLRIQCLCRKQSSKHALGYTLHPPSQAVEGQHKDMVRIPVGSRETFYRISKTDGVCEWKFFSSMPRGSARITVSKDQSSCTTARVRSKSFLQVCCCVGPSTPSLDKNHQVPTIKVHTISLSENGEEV
method: Cross-reactivity binding, cloned human α1a receptor
pKi: −log10 of the molar value. Counter-ions that a name gives are not always drawn.
observed-property: pKi

CC(=O)O[C@H]1CC[C@H](Nc2nc(Nc3ccccc3)c3ccccc3n2)CC1 [Compound 7, Hydrochloride] ... 6.06

---

target: human 5HT1Dα receptor (Homo sapiens, UniProt P28221)
Sequence (P28221 whole entry): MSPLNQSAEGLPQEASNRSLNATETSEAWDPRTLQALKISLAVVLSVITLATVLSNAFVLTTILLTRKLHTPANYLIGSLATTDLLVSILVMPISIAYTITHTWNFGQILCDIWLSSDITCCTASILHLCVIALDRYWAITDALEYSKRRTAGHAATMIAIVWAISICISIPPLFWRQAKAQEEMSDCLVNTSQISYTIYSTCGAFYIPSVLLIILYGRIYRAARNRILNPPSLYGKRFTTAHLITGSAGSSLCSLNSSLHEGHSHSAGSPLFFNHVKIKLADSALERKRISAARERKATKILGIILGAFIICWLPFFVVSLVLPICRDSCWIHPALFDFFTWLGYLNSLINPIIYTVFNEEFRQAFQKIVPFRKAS
Structures can show the parent of a compound that is named as a salt.
observed-property: Ki

CC(=O)O[C@H]1CC[C@H](Nc2nc(Nc3ccccc3)c3ccccc3n2)CC1 [Compound 7, Hydrochloride] ... 1410 nM

---

# Ki listing for each entry below
target: human Y2 receptor (Homo sapiens, UniProt P49146)
Sequence (P49146 whole entry): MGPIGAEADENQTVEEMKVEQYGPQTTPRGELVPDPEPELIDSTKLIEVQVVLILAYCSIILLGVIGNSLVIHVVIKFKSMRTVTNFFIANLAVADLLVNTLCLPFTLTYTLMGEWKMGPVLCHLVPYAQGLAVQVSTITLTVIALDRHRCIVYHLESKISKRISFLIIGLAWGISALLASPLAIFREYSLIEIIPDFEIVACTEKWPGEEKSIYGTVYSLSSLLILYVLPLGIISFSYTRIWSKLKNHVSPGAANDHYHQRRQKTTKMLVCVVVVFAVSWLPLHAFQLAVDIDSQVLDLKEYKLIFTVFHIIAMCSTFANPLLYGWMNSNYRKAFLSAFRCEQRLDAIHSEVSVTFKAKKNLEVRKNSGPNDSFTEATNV
method: ^125I-PYY binding of compounds to human Y2 receptor, stably transfected cells
Counter-ions that a name gives are not always drawn.
observed-property: Ki

CNS(=O)(=O)Cc1ccc(Nc2nc(Nc3ccccc3)c3cc(OC)ccc3n2)cc1.Cl [Compound 10, Hydrochloride] ... > 100 µM
COc1ccc(Nc2nc(Nc3ccccc3)c3cccc(OC)c3n2)cc1.Cl [Compound 9, Hydrochloride] ... > 100 µM
CC(=O)O[C@H]1CC[C@H](Nc2nc(Nc3ccccc3)c3ccccc3n2)CC1 [Compound 7, Hydrochloride] ... 2.87 µM
CNS(=O)(=O)Cc1ccc(Nc2nc(Nc3ccccc3)c3ccccc3n2)cc1.Cl [Compound 11, Hydrochloride] ... > 100 µM

---

Target protein (sequence): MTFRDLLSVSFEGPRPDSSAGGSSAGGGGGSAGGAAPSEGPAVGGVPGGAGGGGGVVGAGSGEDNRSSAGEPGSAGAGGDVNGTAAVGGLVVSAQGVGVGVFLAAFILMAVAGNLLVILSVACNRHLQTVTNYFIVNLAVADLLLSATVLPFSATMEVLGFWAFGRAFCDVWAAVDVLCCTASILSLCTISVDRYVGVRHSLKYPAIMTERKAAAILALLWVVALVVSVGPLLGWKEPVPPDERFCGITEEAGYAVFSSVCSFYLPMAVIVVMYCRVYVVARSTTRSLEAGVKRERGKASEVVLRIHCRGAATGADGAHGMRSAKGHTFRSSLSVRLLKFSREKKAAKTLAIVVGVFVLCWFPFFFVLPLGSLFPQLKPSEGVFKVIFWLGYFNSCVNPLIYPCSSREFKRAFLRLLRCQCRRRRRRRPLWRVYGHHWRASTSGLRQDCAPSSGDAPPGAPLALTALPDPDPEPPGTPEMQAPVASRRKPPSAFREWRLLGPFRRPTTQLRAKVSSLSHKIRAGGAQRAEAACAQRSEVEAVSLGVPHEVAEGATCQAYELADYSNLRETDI
Structures can show the parent of a compound that is named as a salt.
observed-property: Ki (nM)

CC(=O)O[C@H]1CC[C@H](Nc2nc(Nc3ccccc3)c3ccccc3n2)CC1 [Compound 7, Hydrochloride] ... 347

---

target: human 5-HT7 receptor (Homo sapiens)
Sequence (P34969 1-445 isoform P34969-2): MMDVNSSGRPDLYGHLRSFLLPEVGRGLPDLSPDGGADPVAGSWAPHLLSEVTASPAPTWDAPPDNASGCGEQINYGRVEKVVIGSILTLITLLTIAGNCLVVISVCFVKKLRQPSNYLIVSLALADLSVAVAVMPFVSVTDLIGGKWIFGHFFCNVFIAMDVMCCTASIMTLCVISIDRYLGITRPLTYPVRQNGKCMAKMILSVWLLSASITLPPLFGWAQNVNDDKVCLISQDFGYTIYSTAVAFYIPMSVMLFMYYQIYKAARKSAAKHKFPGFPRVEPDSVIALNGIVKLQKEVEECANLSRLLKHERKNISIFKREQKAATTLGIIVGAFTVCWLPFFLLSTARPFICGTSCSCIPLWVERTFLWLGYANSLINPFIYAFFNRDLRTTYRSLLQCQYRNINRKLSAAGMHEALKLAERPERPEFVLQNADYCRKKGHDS
Structures can show the parent of a compound that is named as a salt.
observed-property: Ki (nM)

CC(=O)O[C@H]1CC[C@H](Nc2nc(Nc3ccccc3)c3ccccc3n2)CC1 [Compound 7, Hydrochloride] ... 229
